B1: Retinoic acid receptor RXR-alpha, residues 132 to 208; numbered along this chain, P19793 (parent)
chain: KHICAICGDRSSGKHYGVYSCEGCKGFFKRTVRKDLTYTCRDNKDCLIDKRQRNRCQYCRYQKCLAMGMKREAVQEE

- Variants of: B1
- experimentNotes: abundance fitness (aPCA) (normalised: wild type 0, dead -1); higher = more abundant; growth selection in yeast, the domain comes from the species named
- measurementSetup: Homo sapiens
Would you mind sorting the entries by abundance fitness according to these classes? band 1: < -0.1; band 2: ≥ -0.1 and < -0.03; band 3: ≥ -0.03

Example results:
{"sequenceVariant": "N43S", "classAssignment": "band 3"}
{"sequenceVariant": "K29S", "classAssignment": "band 2"}
{"sequenceVariant": "A5G", "classAssignment": "band 2"}
{"sequenceVariant": "Y16V", "classAssignment": "band 3"}
{"sequenceVariant": "G26L", "classAssignment": "band 1"}
{"sequenceVariant": "D45F", "classAssignment": "band 1"}
{"sequenceVariant": "S20Y", "classAssignment": "band 3"}
{"sequenceVariant": "T31Y", "classAssignment": "band 2"}
{"sequenceVariant": "I6Y", "classAssignment": "band 1"}
{"sequenceVariant": "T37N", "classAssignment": "band 3"}

**Query** # bin label for F28S
**Result** band 1

**Query** # bin label for L36F
**Result** band 3

**Query** # bin label for V32T
**Result** band 3

**Query** # bin label for V32Y
**Result** band 2

**Query** # bin label for E22Y
**Result** band 1

**Query** # bin label for A5T
**Result** band 3

**Query** # bin label for C7S
**Result** band 1

**Query** # bin label for D45I
**Result** band 1

**Query** # bin label for S20G
**Result** band 3
